testTarget: T1, Rluc-ADGRG2-ΔGPS-β N759A (mouse, UniProt Q8CJ12-3 38-995, N759A)
T1 construct: ADGRG2 (GPR64), mouse, ADGRG2-ΔGPS-β: the entire ECD removed; source: HEK293, transfected, on cells; not shown: Rluc, N-terminal, kept
T1 sequence (Q8CJ12 other isoform, or with tags, fused parts or gaps N759A | N759A | N759A N759A): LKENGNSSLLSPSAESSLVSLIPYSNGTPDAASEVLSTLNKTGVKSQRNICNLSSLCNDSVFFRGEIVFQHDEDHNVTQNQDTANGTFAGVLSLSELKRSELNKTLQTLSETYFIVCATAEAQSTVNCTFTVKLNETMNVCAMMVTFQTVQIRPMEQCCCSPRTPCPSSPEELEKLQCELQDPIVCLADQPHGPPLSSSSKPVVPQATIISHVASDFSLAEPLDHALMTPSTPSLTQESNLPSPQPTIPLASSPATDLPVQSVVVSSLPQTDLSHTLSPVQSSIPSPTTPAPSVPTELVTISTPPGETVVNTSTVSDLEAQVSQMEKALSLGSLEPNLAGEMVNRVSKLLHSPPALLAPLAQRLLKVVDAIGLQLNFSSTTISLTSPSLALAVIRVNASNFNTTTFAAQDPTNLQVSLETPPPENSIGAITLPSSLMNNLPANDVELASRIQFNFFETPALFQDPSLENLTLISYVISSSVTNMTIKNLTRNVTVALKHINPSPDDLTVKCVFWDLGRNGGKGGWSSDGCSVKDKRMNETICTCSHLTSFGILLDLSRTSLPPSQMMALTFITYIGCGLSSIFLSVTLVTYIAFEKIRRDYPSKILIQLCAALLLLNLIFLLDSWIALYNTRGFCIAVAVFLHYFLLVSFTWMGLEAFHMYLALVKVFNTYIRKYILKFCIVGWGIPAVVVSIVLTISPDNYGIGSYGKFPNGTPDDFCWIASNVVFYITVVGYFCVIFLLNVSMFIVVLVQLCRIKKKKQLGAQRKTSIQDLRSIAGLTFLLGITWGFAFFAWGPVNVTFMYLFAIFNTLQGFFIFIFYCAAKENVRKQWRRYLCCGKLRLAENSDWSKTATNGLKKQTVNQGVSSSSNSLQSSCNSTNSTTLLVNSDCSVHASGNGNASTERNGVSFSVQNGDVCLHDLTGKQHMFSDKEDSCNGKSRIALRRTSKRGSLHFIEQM
assayMethodText: FRET or BRET; HEK293 cells transfected with Rluc-ADGRG2-ΔGPS-β WT or mutants, stimulated by increasing concentrations of FITC-conjugated VPM-p15; saturation curves fitted with GraphPad; each experiment repeated 6 times
conditionContext: one partner purified
Non-standard residues stand in square brackets, D forms with d. Primed or numbered codes have the meaning given here. No end group written: not given here. Phe(4-Me) = Cc1ccc(C[C@H](N)C(=O)O)cc1; FITC′ = not defined here
metricName: EC50
A complete answer gives the number and then names the unit.

For VS[Phe(4-Me)]GILLDLSRTSLP-{FITC′} [FITC-conjugated VPM-p15 (ADGRG2 Stachel peptide p15 T1V/F3Phe(4-Me))] , write its EC50. 1550 nM
